# System: Enterococcus faecium
# Run Description: Antimicrobial activity against vancomycin-resistant Enterococcus faecium 6A by agar dilution method
# Type: functional
Measured Parameter: MIC (µg/mL)
Provide only the numeric value, understood in µg/mL.

May I ask what MIC has been recorded for CC(=O)NC[C@H]1CN(c2ccc(N3CCOCC3)c(F)c2)C(=O)O1 ?
2

Another: CC(=O)NC[C@H]1CN(c2ccc(N3CCN(c4ccc([N+](=O)[O-])s4)CC3)c(F)c2)C(=O)O1
0.25

Another: CC(=O)OC[C@H]1CN(c2ccc(N3CCN(c4ccc([N+](=O)[O-])s4)CC3)c(F)c2)C(=O)O1
1

Another: O=C1O[C@@H](CO)CN1c1ccc(N2CCN(c3ccc([N+](=O)[O-])s3)CC2)c(F)c1
0.5

Another: Cc1ccccc1S(=O)(=O)NC(=O)OC[C@H]1CN(c2ccc(N3CCN(c4ccc([N+](=O)[O-])s4)CC3)c(F)c2)C(=O)O1
1

Origin of measurements: ChEMBL document CHEMBL1146242
